experiment: In vivo pharmacokinetic studies in mice; set-up: species or system Balb/C mice; conditions: mouse, plasma; Balb/C mice, single dose IV 5 mg/kg
readoutType: MRT inf
// return the numeric value with its unit appended

Any idea what its MRT inf is? The compound is CC[C@H](N)c1csc(C(=O)c2c[nH]c3cc(F)ccc23)n1
9.55 h

----------
assay: In vivo pharmacokinetic studies in rats; set-up: species or system SD rats; conditions: Sprague-Dawley (SD), rat, plasma, iv, 2 mg/kg, rats, single 2 mg/kg IV dose, Mean of 3 animals
Listed here: items and their measured MRT last.
Answer in h, number only, no unit symbol.

{"chemicalSmiles": "CC[C@H](O)c1csc(C(=O)c2c[nH]c3cc(F)ccc23)n1", "quantitativeResult": 1.63}

// below: MRT last requested for another molecule
Data request, read-out MRT last, for CC[C@@H](O)c1csc(C(=O)c2c[nH]c3cc(F)ccc23)n1
0.959

----------
Target: CYP1A2 (Homo sapiens, UniProt P05177)
Construct: from tissue; host or cells: human liver microsomes
Sequence (P05177 1-516): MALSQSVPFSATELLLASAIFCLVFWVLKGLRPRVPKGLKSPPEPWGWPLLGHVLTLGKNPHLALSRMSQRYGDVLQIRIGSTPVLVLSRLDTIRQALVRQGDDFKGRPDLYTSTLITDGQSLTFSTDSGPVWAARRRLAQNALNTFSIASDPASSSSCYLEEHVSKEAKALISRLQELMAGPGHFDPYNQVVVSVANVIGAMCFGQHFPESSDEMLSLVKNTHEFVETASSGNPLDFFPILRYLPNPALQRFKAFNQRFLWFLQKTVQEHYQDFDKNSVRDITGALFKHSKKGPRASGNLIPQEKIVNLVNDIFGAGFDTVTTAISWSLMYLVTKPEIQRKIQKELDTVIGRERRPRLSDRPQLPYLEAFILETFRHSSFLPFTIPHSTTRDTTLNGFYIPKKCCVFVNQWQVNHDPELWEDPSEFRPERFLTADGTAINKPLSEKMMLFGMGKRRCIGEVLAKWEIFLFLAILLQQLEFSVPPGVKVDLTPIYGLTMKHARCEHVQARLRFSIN
Assay: CYP profiling: human liver microsomes with CYP1A2 inhibitor furafylline
Type: in vitro ADME
Set-up: concentration or dose not given beside the values
Settings: HLMs
Quick rule: % Compound Metabolized at 30 min, CYP1A2 Inhibitor of at least 7% means Fulfilled, below that means Not fulfilled.

{"chemicalSmiles": "O=C(c1nc([C@@H](O)C(F)(F)F)cs1)c1c[nH]c2cc(F)ccc12", "labelValue": "Fulfilled"}
{"chemicalSmiles": "N[C@H](c1csc(C(=O)c2c[nH]c3cc(F)ccc23)n1)C(F)(F)F", "labelValue": "Fulfilled"}
{"chemicalSmiles": "CC[C@H](O)c1csc(C(=O)c2c[nH]c3cc(F)ccc23)n1", "labelValue": "Not fulfilled"}
{"chemicalSmiles": "N[C@H](c1csc(C(=O)c2c[nH]c3ccccc23)n1)C(F)(F)F", "labelValue": "Fulfilled"}
{"chemicalSmiles": "CC[C@@H](N)c1csc(C(=O)c2c[nH]c3ccc(F)cc23)n1", "labelValue": "Not fulfilled"}

Does the compound CC[C@H](N)c1csc(C(=O)c2c[nH]c3ccc(F)cc23)n1 have recorded % Compound Metabolized at 30 min, CYP1A2 Inhibitor that is 7% or more?
Fulfilled

----------
Biological target: CYP1A2 (Homo sapiens)
Construct: from tissue; host or cells: human liver microsomes
Sequence (P05177 1-516): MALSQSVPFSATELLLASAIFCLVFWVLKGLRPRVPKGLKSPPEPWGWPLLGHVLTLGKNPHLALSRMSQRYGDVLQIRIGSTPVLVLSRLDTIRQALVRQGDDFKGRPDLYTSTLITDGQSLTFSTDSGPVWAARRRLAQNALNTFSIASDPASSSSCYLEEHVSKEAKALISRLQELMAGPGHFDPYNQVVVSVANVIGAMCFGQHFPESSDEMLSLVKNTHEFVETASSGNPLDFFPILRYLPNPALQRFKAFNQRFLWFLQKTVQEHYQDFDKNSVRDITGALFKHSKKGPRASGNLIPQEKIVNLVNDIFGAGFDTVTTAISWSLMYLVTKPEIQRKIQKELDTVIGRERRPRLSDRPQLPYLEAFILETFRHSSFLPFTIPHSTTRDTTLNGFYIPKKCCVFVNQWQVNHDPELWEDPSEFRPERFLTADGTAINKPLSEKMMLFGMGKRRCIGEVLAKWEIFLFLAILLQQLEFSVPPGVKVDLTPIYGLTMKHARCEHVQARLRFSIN
Experiment: CYP profiling: human liver microsomes with CYP1A2 inhibitor furafylline
Format: in vitro ADME
Conditions: HLMs, 30 min
Method: In order to investigate the contributions of CYP1A2 and CYP3A4 to the metabolism of the compounds of the present disclosure, human liver microsomes were incubated with the test compounds for 30 minutes in the presence of selective chemical inhibitors furafylline (1A2) and ketoconazole (3A4).
readoutType: % Inhibition Relative to Negative Control, 1A2

{"chemicalSmiles": "O=C(c1nc([C@H](O)C(F)(F)F)cs1)c1c[nH]c2cc(F)ccc12", "testedTarget": "CYP1A2 (Homo sapiens)", "result": "None"}
{"chemicalSmiles": "O=C(c1nc([C@@H](O)C(F)(F)F)cs1)c1c[nH]c2cc(F)ccc12", "testedTarget": "CYP1A2 (Homo sapiens)", "result": "None"}
{"chemicalSmiles": "CC[C@H](N)c1csc(C(=O)c2c[nH]c3ccc(F)cc23)n1", "testedTarget": "CYP1A2 (Homo sapiens)", "result": "None"}

----------
assay: Hepatocyte intrinsic clearance assay (metabolic stability), human hepatocytes; format: in vitro ADME; conditions: male, human, cryopreserved pooled hepatocytes, Human Hepatocytes, 1 μM test compound
readoutType: hepatocyte CLint at 1 μM (µL/min/1e6 cells)
// units = µL/min/1e6 cells; emit number, no label

Known hepatocyte CLint at 1 μM results, listed for orientation:
{"compound": "N[C@H](c1csc(C(=O)c2c[nH]c3ccccc23)n1)C(F)(F)F", "uom": "µL/min/1e6 cells", "hepatocyte CLint at 1 μM": 64.4}
{"compound": "N[C@@H](c1csc(C(=O)c2c[nH]c3cc(F)ccc23)n1)C(F)(F)F", "uom": "µL/min/1e6 cells", "hepatocyte CLint at 1 μM": 3.85}
{"compound": "CC[C@@H](N)c1csc(C(=O)c2c[nH]c3ccc(F)cc23)n1", "uom": "µL/min/1e6 cells", "hepatocyte CLint at 1 μM": 2.17}
{"compound": "CC[C@H](N)c1csc(C(=O)c2c[nH]c3ccc(F)cc23)n1", "uom": "µL/min/1e6 cells", "hepatocyte CLint at 1 μM": 9.16}

Would you mind telling me what hepatocyte CLint at 1 μM value was observed for CC(C)(O)c1csc(C(=O)c2c[nH]c3ccccc23)n1 ?
17.9

Which hepatocyte CLint at 1 μM is listed for CC(C)(O)c1csc(C(=O)c2c[nH]c3cc(F)ccc23)n1 ?
8.33

What value of hepatocyte CLint at 1 μM has been recorded for this entry: NC(c1csc(C(=O)c2c[nH]c3ccccc23)n1)C(F)(F)F (stereo not drawn)
0.251

// hepatocyte CLint at 1 μM lookup, key: N[C@H](c1csc(C(=O)c2c[nH]c3cc(F)ccc23)n1)C(F)(F)F
11.6

Report hepatocyte CLint at 1 μM for CCC(O)(CC)c1csc(C(=O)c2c[nH]c3cc(F)ccc23)n1 please.
16

Which value of hepatocyte CLint at 1 μM has been reported for O=C(c1nc([C@@H](O)C(F)(F)F)cs1)c1c[nH]c2cc(F)ccc12 in the records?
11.3

Entry O=C(c1nc([C@H](O)C(F)(F)F)cs1)c1c[nH]c2cc(F)ccc12 : reported hepatocyte CLint at 1 μM = ?
44.1

----------
experiment: Hepatocyte intrinsic clearance assay (metabolic stability), human hepatocytes; format: in vitro ADME; settings: male, human, cryopreserved pooled hepatocytes, Human Hepatocytes, 1 μM test compound
// half-life at 1 μM lookup, one value per entry
Record the value in min, omitting the unit from your answer.

{"compound": "CCC(O)(CC)c1csc(C(=O)c2c[nH]c3cc(F)ccc23)n1", "readoutType": "half-life at 1 μM", "quantitativeResult": 42}

Looking for the measured half-life at 1 μM of CC(C)(O)c1csc(C(=O)c2c[nH]c3cc(F)ccc23)n1 , can you help?
84

Entry under review: N[C@H](c1csc(C(=O)c2c[nH]c3cc(F)ccc23)n1)C(F)(F)F . Reported half-life at 1 μM?
60

Need half-life at 1 μM, item O=C(c1nc(C(O)C(F)(F)F)cs1)c1c[nH]c2ccccc12 (stereo not shown)
54

----------
test system: human hepatocytes; experiment: Hepatocyte intrinsic clearance assay (metabolic stability), human hepatocytes; assay type: in vitro ADME; details: Human Hepatocytes; well stirred liver model, fu=1
readoutType: EH (hepatic extraction ratio) (%)
Hi! Could you send only the number? It should be in %, unit omitted.

The following compounds have reported results that may help.
{"chemicalSmiles": "N[C@@H](c1csc(C(=O)c2c[nH]c3cc(F)ccc23)n1)C(F)(F)F", "uom": "%", "EH (hepatic extraction ratio)": 15.8}
{"chemicalSmiles": "CC[C@@H](N)c1csc(C(=O)c2c[nH]c3ccc(F)cc23)n1", "uom": "%", "EH (hepatic extraction ratio)": 11.5}

Now examine the next entry.
Return reported EH (hepatic extraction ratio); argument: CC[C@H](O)c1nc(C(=O)c2c[nH]c3cc(F)ccc23)cs1
24.7
